# ASSAY_SYSTEM: T1, human LAG-3 expressed on cells (human, UniProt P18627 23-525)
# T1 sequence: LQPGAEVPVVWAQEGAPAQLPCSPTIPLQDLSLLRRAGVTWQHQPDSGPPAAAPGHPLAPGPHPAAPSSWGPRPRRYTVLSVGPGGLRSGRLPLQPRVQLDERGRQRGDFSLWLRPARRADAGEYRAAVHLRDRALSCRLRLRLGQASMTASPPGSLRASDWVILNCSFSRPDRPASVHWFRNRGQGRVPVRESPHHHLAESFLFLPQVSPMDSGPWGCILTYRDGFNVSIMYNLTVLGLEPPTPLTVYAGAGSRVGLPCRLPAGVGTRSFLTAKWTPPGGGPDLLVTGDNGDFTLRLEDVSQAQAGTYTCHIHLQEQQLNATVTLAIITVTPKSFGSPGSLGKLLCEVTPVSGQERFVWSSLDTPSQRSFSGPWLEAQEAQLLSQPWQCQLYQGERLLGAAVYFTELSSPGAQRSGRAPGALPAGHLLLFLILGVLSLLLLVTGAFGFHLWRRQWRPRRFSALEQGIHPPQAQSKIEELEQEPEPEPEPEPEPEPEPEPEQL
# EXPERIMENT_NOTES: cell-based or functional assay
EXPERIMENTAL_ENDPOINT: EC50 (M), NFAT-Luciferase Reporter Gene assay (LAG-3:MHCII)

BINDER	RECORDED_NUMBER
VH1.1-6GS-VH1.1-His6 (VHH, Tandem fusion of two VH 1.1, bivalent for LAG-3; The entry includes the C-terminal AAA-His6; also called 1.1-6GS-1.1; bivalent 1.1-6GS-1.1) EVQLVESGGGVVRPGGSLRLSCSASGFTFDDYGMSWVRQAPGKGLEWVSGIHWNGGNSGYADSVKGRFTISRDNAKNSLYLQMNSLRAEDTALYYCARIPREDCSSASCYTDAIDFWGPGTMVTVSSGGGGSGGGGSGGGGSGGGGSGGGGSGGGGSEVQLVESGGGVVRPGGSLRLSCSASGFTFDDYGMSWVRQAPGKGLEWVSGIHWNGGNSGYADSVKGRFTISRDNAKNSLYLQMNSLRAEDTALYYCARIPREDCSSASCYTDAIDFWGPGTMVTVSSAAAHHHHHH	4.1e-09

FYI, the data here is from patent US20210015937A1.
